From: patent US20250163038A1

Target: Recombinant human c-Cbl (aa 47-435) (Homo sapiens, UniProt P22681)
Sequence (P22681 47-435): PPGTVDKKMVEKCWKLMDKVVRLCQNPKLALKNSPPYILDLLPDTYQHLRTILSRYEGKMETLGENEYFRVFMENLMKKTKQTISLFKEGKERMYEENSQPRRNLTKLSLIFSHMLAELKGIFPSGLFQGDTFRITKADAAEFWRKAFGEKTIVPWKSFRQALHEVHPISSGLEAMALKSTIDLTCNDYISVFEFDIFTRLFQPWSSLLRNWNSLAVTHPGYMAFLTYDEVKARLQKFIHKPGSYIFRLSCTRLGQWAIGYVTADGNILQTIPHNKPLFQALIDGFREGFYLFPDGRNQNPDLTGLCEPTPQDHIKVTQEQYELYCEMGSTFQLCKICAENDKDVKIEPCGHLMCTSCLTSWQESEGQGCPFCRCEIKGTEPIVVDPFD
Test: c-Cbl Biochemical Assay (TR-FRET)
Details: hc-Cbl Biochemical Assay (TR-FRET); read-out: TR-FRET hcCbl IC50
# IC50 per record follows

CN(C)CC(=O)NCc1cc(C(F)(F)F)c2oc(-c3cccc(-c4ccc(F)cc4-c4nncn4C)c3)nc2c1	0.2 to 1 µM
CO[C@H](CO)c1cc(C(F)(F)F)c2oc(-c3cccc(-c4ccc(F)cc4-c4nncn4C)c3)nc2c1 (single isomer, unassigned)	0.2 to 1 µM
Cn1cnnc1-c1cc(F)ccc1-c1cccc(-c2nc3cc(CNCC4CC4)cc(C(F)(F)F)c3o2)c1	< 0.2 µM

IC50 lookup needed for "Cn1cnnc1-c1cc(C#N)ccc1-c1cccc(-c2nc3cc(CN[C@@H]4CCC[C@@H]4O)cc(C(F)(F)F)c3[nH]2)c1" , thanks.
1 to 10 µM

Name the recorded IC50 for "Cn1cnnc1-c1ccccc1-c1cccc(-c2nc3ccc(N)c(C(F)(F)F)c3[nH]2)c1" .
10 to 50 µM

If you can, please state the reported IC50 value of "CN(Cc1cc(Cl)c2oc(-c3cccc(-c4ccc(F)cc4-c4nncn4C)c3)nc2c1)[C@@H]1CCC[C@@H]1O" .
< 0.2 µM

Request the reported IC50 associated with "C[C@H]1CCCN(Cc2cc(C(F)(F)F)c3oc(-c4cccc([C@]5(c6nncn6C)C[C@@H](C)C5)c4)nc3c2)C1"
1 to 10 µM

Param item = "COCCN(Cc1cc(C(F)(F)F)c2oc(-c3cccc(-c4ccc(F)cc4-c4nncn4C)c3)nc2c1)CC(C)(C)O" ; retrieve measured IC50.
0.2 to 1 µM

Which IC50 value belongs to "CCNc1cc(-c2c(-c3nncn3C)cnn2C)cc(-c2nc3cccc(C(F)(F)F)c3s2)n1" ?
10 to 50 µM

* * *

Biological target: Recombinant human c-Cbl (aa 47-435) (Homo sapiens, UniProt P22681)
Sequence (P22681 47-435): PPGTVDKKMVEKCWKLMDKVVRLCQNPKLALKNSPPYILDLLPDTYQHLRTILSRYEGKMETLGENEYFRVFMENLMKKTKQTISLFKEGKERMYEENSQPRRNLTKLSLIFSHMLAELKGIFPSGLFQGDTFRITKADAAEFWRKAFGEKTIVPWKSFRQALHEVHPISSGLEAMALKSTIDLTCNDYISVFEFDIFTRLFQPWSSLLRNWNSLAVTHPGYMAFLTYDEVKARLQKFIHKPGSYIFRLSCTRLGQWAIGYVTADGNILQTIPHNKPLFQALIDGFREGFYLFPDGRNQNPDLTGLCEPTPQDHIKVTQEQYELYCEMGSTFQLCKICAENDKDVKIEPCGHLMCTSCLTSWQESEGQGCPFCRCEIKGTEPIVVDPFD
Experiment: c-Cbl Biochemical Assay (TR-FRET)
Details: hc-Cbl Biochemical Assay (TR-FRET); read-out: TR-FRET hcCbl IC50
pIC50: −log10 of the molar value.
assay readout: pIC50

# count of solved cases: 2
COCCNCc1cc(F)c2oc(-c3cccc(-c4ccc(F)cc4-c4nncn4C)c3)nc2c1	> 6.70
COC[C@@H](C)NCc1cc(F)c2oc(-c3cc(-c4ccc(F)cc4-c4nncn4C)cc(C4CC4)n3)nc2c1	6.00 to 6.70

Look up pIC50 for this compound: "Cn1cnnc1-c1cc(F)ccc1-c1cccc(-c2nc3cc(CN[C@@H]4CCC[C@H]4O)cc(C(F)(F)F)c3[nH]2)c1"
5.00 to 6.00

Param item = "Cn1cnnc1-c1cnn(C)c1-c1cccc(-c2nc3cc(CN[C@H]4CCC[C@@H]4O)cc(C(F)(F)F)c3o2)c1" ; retrieve measured pIC50.
4.30 to 5.00

Which pIC50 is listed for "Cn1cnnc1-c1cc(F)ccc1-c1cccc(-c2nc3ccc(CN[C@@H]4CCC[C@@H]4O)cc3s2)c1" ?
5.00 to 6.00

GET /values?readout=pIC50&item= "CN1CC[C@@H](Oc2ccc3nc(-c4cccc(-c5ccccc5-c5nncn5C)c4)[nH]c3c2C(F)(F)F)C1"
4.30 to 5.00

Consider the compound shown here: CC(c1cc(C(F)(F)F)c2oc(-c3cccc(C4(Cc5nncn5C)COC4)c3)nc2c1)N1CCC2(CC2)C1 (stereo not shown) What is its recorded pIC50?
5.00 to 6.00
